target or test system: human Src enzyme (Homo sapiens, UniProt P12931)
Construct: purchased Carna Biosciences, Inc. 08-173
Sequence (P12931 whole entry): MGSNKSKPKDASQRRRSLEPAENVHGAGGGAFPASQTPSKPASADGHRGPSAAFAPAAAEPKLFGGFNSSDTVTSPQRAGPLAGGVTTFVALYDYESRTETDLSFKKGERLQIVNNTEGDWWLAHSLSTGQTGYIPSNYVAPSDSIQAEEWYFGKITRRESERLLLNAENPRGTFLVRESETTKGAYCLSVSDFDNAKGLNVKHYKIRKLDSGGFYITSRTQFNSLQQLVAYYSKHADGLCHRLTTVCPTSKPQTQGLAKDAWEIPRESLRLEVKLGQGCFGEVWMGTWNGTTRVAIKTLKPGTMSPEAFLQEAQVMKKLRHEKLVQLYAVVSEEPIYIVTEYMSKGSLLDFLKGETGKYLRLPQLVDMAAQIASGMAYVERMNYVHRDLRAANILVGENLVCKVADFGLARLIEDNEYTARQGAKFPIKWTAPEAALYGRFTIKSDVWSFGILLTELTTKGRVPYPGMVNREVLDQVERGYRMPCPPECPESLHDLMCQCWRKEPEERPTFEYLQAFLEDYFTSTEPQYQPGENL
experimental details: Src enzyme inhibitory activity (time-resolved fluorometry, biotinylated peptide phosphorylation)
Assay type: biochemical
condition: biotinylated peptide phosphorylation, read-out: SRC_IC50
readout: IC50 (nM)
All answers are understood in nM, so give the number only.

Please indicate IC50 recorded for Cc1cc(Oc2ccccc2F)ccc1-n1ncc(C(=O)c2cc3cc(F)c(NS(=O)(=O)c4cccc(F)n4)cc3[nH]2)c1N
300

Please indicate IC50 recorded for Cc1cc(Oc2ccccc2F)ncc1-n1ncc(C(=O)c2cc3cc(F)c(N4CCCS4(=O)=O)cc3[nH]2)c1N
13

Please indicate IC50 recorded for Cc1cc(Oc2ccccc2F)cc(F)c1-n1ncc(C(=O)c2cc3cc(OC(F)F)c(N4CCN(S(C)(=O)=O)CC4)cc3[nH]2)c1N
62

Please indicate IC50 recorded for Cc1cc(Oc2ccccc2F)ncc1-n1ncc(C(=O)c2cc3cc(F)c(NS(=O)(=O)c4cncc(F)c4)cc3[nH]2)c1N
740

Please indicate IC50 recorded for COc1cccc(S(=O)(=O)Nc2cc3[nH]c(C(=O)c4cnn(-c5cnc(Oc6ccccc6F)cc5C)c4N)cc3cc2C)c1
690

Please indicate IC50 recorded for Cc1cc2cc(C(=O)c3cnn(-c4ccc(Oc5ccccc5F)cc4C)c3N)[nH]c2cc1N1C(=O)[C@@H]2CCCN2C1=O
16

---

target or test system: human Yes1 enzyme (Homo sapiens, UniProt P07947)
Construct: made in house
Sequence (P07947 whole entry): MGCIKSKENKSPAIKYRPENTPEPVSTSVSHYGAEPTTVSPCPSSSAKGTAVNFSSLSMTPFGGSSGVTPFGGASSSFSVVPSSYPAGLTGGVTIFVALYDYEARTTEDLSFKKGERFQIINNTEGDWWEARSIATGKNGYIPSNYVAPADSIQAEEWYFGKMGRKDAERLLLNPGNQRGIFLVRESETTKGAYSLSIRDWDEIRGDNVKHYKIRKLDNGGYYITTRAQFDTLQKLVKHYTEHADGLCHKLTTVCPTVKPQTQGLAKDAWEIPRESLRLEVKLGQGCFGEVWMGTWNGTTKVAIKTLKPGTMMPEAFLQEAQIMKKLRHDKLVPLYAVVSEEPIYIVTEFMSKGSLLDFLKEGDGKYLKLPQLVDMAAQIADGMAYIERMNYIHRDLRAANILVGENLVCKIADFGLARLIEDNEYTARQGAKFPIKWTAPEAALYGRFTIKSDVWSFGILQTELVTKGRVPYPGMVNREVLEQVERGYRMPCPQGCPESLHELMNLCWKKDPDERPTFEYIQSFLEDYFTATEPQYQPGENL
experimental details: Yes1 enzyme inhibitory activity (time-resolved fluorometry, biotinylated peptide phosphorylation)
Type: biochemical
condition: read-out: YES_IC50
Experimental: 1. Yes1 Enzyme Inhibitory Activity Yes1 inhibitory activity was determined based on activity of inhibiting phosphorylation reaction of a biotinylated peptide (EGPWLEEEEEAYGWMDF) using a human Yes1 enzyme prepared using a baculovirus expression system. The phosphorylated biotinylated peptide was detected by time-resolved fluorometry using an anti-phosphorylated tyrosine antibody conjugated to europium cryptate, and streptavidin conjugated to XL665, an allophycocyanin derivative. […]
Could you please report measured IC50 for the items listed next?
All answers are understood in nM, so give the number only.

Please indicate IC50 recorded for Cc1cc(Oc2ccccc2F)ccc1-n1ncc(C(=O)c2cc3cc(OCC(F)F)c(N4C(=O)OC[C@@H]4Cc4ccccc4)cc3[nH]2)c1N
7.1

Please indicate IC50 recorded for Cc1cc2cc(C(=O)c3cnn(-c4ccc(Oc5ccccc5F)c(F)c4)c3N)[nH]c2cc1NS(C)(=O)=O
1.5

Please indicate IC50 recorded for Cc1cc(Oc2c(F)cccc2F)ncc1-n1ncc(C(=O)c2cc3cc(F)c(N4CCCC4=O)cc3[nH]2)c1N
1.9

Please indicate IC50 recorded for Cc1cc(Oc2c(F)cccc2F)ncc1-n1ncc(C(=O)c2cc3cc(OCC(F)F)c(NS(=O)(=O)c4ccc(F)cc4)cc3[nH]2)c1N
8.5

Please indicate IC50 recorded for Cc1cc(-n2ncc(C(=O)c3cc4cc(OC5CCN(C6CS(=O)(=O)C6)CC5)c(-c5ccccc5C)cc4[nH]3)c2N)ccc1Oc1ccccc1F
4.2

Please indicate IC50 recorded for Cc1cc(Oc2ccccc2F)ccc1-n1ncc(C(=O)c2cc3cc(F)c(N4C(=O)[C@@H]5C[C@H](NC(=O)OCC6c7ccccc7-c7ccccc76)CN5C4=O)cc3[nH]2)c1N
5.4

---

Could you please report measured pIC50 for the items listed next?
target or test system: human Lck enzyme (Homo sapiens, UniProt P06239)
Construct: purchased Carna Biosciences, Inc. 08-170
Sequence (P06239 whole entry): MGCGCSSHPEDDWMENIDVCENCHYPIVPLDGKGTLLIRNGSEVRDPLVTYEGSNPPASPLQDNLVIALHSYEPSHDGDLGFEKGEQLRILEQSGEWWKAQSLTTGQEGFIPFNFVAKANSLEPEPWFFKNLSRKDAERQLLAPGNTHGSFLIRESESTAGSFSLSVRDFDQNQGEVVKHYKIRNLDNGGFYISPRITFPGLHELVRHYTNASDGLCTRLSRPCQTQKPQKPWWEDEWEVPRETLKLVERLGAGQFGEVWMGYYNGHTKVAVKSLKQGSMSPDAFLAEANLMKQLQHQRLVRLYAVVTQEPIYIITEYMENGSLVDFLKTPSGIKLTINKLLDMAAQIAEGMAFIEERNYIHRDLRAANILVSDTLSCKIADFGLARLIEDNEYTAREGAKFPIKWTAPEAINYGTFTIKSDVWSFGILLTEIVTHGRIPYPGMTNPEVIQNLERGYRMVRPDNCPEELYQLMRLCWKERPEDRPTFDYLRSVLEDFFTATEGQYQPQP
experimental details: Lck enzyme inhibitory activity (time-resolved fluorometry, biotinylated peptide phosphorylation)
Assay type: biochemical
condition: biotinylated peptide phosphorylation, read-out: LCK_IC50
Convention used: pIC50 is expressed as -log10 of the molar concentration.

Please indicate pIC50 recorded for CC(C)N1CCC(c2cc3cc(C(=O)c4cnn(-c5ccc(Oc6cccc(F)c6F)cc5F)c4N)[nH]c3cc2F)CC1 [Example 4-2-007]
8.44

Please indicate pIC50 recorded for COc1ccnc(S(=O)(=O)Nc2cc3[nH]c(C(=O)c4cnn(-c5cnc(Oc6ccccc6F)cc5C)c4N)cc3cc2C)c1 [Example 5-1-482]
6.85

Please indicate pIC50 recorded for Cc1cc(-n2ncc(C(=O)c3cc4cc(C)c(N5C(=O)NC6(CCCC6)C5=O)cc4[nH]3)c2N)ccc1Oc1ccccc1F [Example 5-1-474]
6.19

Please indicate pIC50 recorded for COc1cc2cc(C(=O)c3cnn(-c4ccc(Oc5ccccc5F)cc4C)c3N)[nH]c2cc1NS(=O)(=O)CC(=O)N1CCOCC1 [Example 4-10-012]
8.29

Please indicate pIC50 recorded for COc1cc2cc(C(=O)c3cnn(-c4cnc(Oc5ccccc5F)cc4C)c3N)[nH]c2cc1NS(=O)(=O)CC(=O)NC(C)C [Example 4-10-015]
8.14

Please indicate pIC50 recorded for Cc1cc(Oc2c(F)cccc2Cl)ncc1-n1ncc(C(=O)c2cc3cc(F)c(NS(C)(=O)=O)cc3[nH]2)c1N [Example 4-2-035]
8.17

Please indicate pIC50 recorded for COc1ccnc(S(=O)(=O)Nc2cc3[nH]c(C(=O)c4cnn(-c5cnc(Oc6c(F)cccc6F)cc5C)c4N)cc3cc2C)c1 [Example 5-1-511]
6.62

Please indicate pIC50 recorded for Cc1cc2cc(C(=O)c3cnn(-c4cnc(Oc5c(F)cccc5F)cc4C)c3N)[nH]c2cc1N1C(=O)NC2(COC2)C1=O [Example 5-1-404]
8.59

Please indicate pIC50 recorded for Cc1cc(Oc2c(F)cccc2F)ncc1-n1ncc(C(=O)c2cc3cc(F)c(N(CCN4CCOCC4)S(C)(=O)=O)cc3[nH]2)c1N [Example 4-2-128]
8.57

Please indicate pIC50 recorded for Cc1cc(Oc2ccccc2F)ccc1-n1ncc(C(=O)c2cc3cc(F)c(NS(=O)(=O)c4cccc(F)n4)cc3[nH]2)c1N [Example 5-1-517]
7.47

Please indicate pIC50 recorded for COc1ccnc(S(=O)(=O)Nc2cc3[nH]c(C(=O)c4cnn(-c5cnc(Oc6ccccc6F)cc5C)c4N)cc3cc2F)c1 [Example 5-1-514]
6.85

Please indicate pIC50 recorded for Cc1cc(Oc2ccccc2F)ccc1-n1ncc(C(=O)c2cc3cc(F)c(N4C(=O)N[C@@H](CO)C4=O)cc3[nH]2)c1N [Example 5-1-446]
8.68

Please indicate pIC50 recorded for Cc1cc(Oc2ccccc2F)cc(F)c1-n1ncc(C(=O)c2cc3cc(OCC(F)F)c(N4CCC(N5CCOCC5)CC4)cc3[nH]2)c1N [Example 4-25-029]
8.17

---

target or test system: human Src enzyme (Homo sapiens)
Construct: purchased Carna Biosciences, Inc. 08-173
experimental details: Src enzyme inhibitory activity (time-resolved fluorometry, biotinylated peptide phosphorylation)
Assay type: biochemical
condition: biotinylated peptide phosphorylation, read-out: SRC_IC50
Could you please report measured pIC50 for the items listed next?
Convention used: pIC50 is expressed as -log10 of the molar concentration.

Please indicate pIC50 recorded for Cc1cc2cc(C(=O)c3cnn(-c4cnc(Oc5c(F)cccc5F)cc4C)c3N)[nH]c2cc1NS(=O)(=O)c1cccc(C#N)n1 [Example 5-1-536]
6.25

Please indicate pIC50 recorded for Cc1cc2cc(C(=O)c3cnn(-c4cnc(Oc5ccccc5F)cc4C)c3N)[nH]c2cc1NS(=O)(=O)c1cccc2ccccc12 [Example 5-1-465]
5.40

Please indicate pIC50 recorded for Cc1cc2[nH]c(C(=O)c3cnn(-c4ccc(Oc5cccc(F)c5F)cc4C)c3N)cc2cc1NS(C)(=O)=O [Example 4-2-050]
8.15

Please indicate pIC50 recorded for Cc1cc(Oc2ccccc2F)ncc1-n1ncc(C(=O)c2cc3cc(F)c(NS(=O)(=O)c4cccc(C#N)n4)cc3[nH]2)c1N [Example 5-1-539]
6.10

Please indicate pIC50 recorded for Cc1cc(Oc2c(F)cccc2F)ncc1-n1ncc(C(=O)c2cc3cc(OCC(F)F)c(N4C(=O)C(C)(C)NC4=S)cc3[nH]2)c1N [Example 4-23-036]
7.51

Please indicate pIC50 recorded for Cc1cc(Oc2ccccc2F)ccc1-n1ncc(C(=O)c2cc3cc(OC(F)F)c(N4CCCS4(=O)=O)cc3[nH]2)c1N [Example 4-25-002]
7.43

Please indicate pIC50 recorded for COc1cccc(S(=O)(=O)Nc2cc3[nH]c(C(=O)c4cnn(-c5cnc(Oc6ccccc6F)cc5C)c4N)cc3cc2OCC(F)F)c1 [Example 5-1-419]
6.10

Please indicate pIC50 recorded for Cc1cc(Oc2ccccc2F)ncc1-n1ncc(C(=O)c2cc3cc(N4CCOCC4)c(NS(=O)(=O)C4CC4)cc3[nH]2)c1N [Example 4-24-014]
6.44

Please indicate pIC50 recorded for Cc1cc(Oc2ccccc2F)ncc1-n1ncc(C(=O)c2cc3cc(NS(C)(=O)=O)c(OCCN4CCOCC4)cc3[nH]2)c1N [Example 4-2-129]
8.49

Please indicate pIC50 recorded for Cc1cc2cc(C(=O)c3cnn(-c4cnc(Oc5ccccc5F)cc4C)c3N)[nH]c2cc1NS(=O)(=O)c1cc(C#N)cc(C(F)(F)F)c1 [Example 5-1-499]
5.74

Please indicate pIC50 recorded for Cc1cc(Oc2ccccc2F)ccc1-n1ncc(C(=O)c2cc3cc(OCC(F)F)c(NC4CCN(S(C)(=O)=O)CC4)cc3[nH]2)c1N [Example 4-23-017]
7.55

Please indicate pIC50 recorded for Cc1cc(Oc2ccccc2F)cc(F)c1-n1ncc(C(=O)c2cc3cc(OCC(F)F)c(NS(=O)(=O)C4CC4)cc3[nH]2)c1N [Example 4-24-024]
6.89

Please indicate pIC50 recorded for Cc1cc(Oc2c(F)cccc2F)ncc1-n1ncc(C(=O)c2cc3cc(F)c(NS(=O)(=O)c4cccc(C#N)n4)cc3[nH]2)c1N [Example 5-1-538]
6.17
